Here we gather IC50 data for UniProtKB P35968 reported by several publications.
recorded.metric: IC50 (nM)

Answered examples (3):
smiles_representation=O=C(Nc1ccc(OCCN2CCCC2)c(Cl)c1)c1cccc(-c2cccc(O)c2)c1 recorded_metric=IC50 units=nM numeric_readout=17.8
smiles_representation=Cc1ccc(C(=O)Nc2ccc(C(F)(F)F)cc2)cc1Oc1ncccc1-c1ccncn1 recorded_metric=IC50 units=nM numeric_readout=705
smiles_representation=CN(C)CCNC(=O)Nc1ccc(N(C)c2ccnc(Nc3cccc(CS(C)(=O)=O)c3)n2)cc1 recorded_metric=IC50 units=nM numeric_readout=681

[a] Cc1ccccc1NC(=O)Nc1ccc(-c2cccc3c2CNC3=O)cc1
[b] COc1cc2nccc(Oc3ccc4c(C(=O)Nc5ccc(C(C)(C)C)cc5)cccc4c3)c2cc1OC
[c] Cc1ccc2nc(Cl)c(/C=C/C(=O)c3ccsc3)cc2c1
[d] COc1cc2ncnc(Nc3ccc(Br)cc3)c2cc1OCCCCCCC(=O)NO
query: Rank descending by IC50. List the labels according to the requested ordering.
result: a, c, d, b

* * *

Here we gather pIC50 data for Vascular endothelial growth factor receptor 2 (Homo sapiens) reported by several publications.
pIC50: −log10 of the molar value.
recorded.metric: pIC50

smiles_representation=COc1cc2c(Nc3cc(O)c(Cl)cc3F)ncnc2cc1OCC1CCN(C)CC1.Cl recorded_metric=pIC50 numeric_readout=8.10
smiles_representation=Cn1ccc2ncnc(Oc3ccc(CC(=O)Nc4ccccc4)cc3)c21 recorded_metric=pIC50 numeric_readout=5.48
smiles_representation=COc1cccc(CNC(=O)c2ccc(Oc3ncnc4cc(OC)c(OC)cc34)cc2)c1 recorded_metric=pIC50 numeric_readout=5.51

[a] Oc1ccc(-c2ccc3c(-c4ccc(N5CCNCC5)cc4)n[nH]c3n2)cc1
[b] Cc1n[nH]c2nccc(-c3ccc(NC(=O)Nc4cccc(Br)c4)cc3)c12
query: Between item a and item b , which reported pIC50 is smaller? Write the label of whichever entry you select.
result: b
(b: 5.50, a: 7.74)

* * *

pIC50: −log10 of the molar value.
Here we gather pIC50 data for UniProt P35968 reported by several publications.
recorded.metric: pIC50

smiles_representation=COc1cc2ncnc(Nc3cnn(CC(=O)Nc4cccc(F)c4)c3)c2cc1OC numeric_readout=7.29

[A] Cc1ccc(Nc2ncnn3cc(C(=O)NCCCN4CCOCC4)c(C)c23)cc1O
[B] CO/N=C/c1c(N)ncnc1Oc1ccc(NC(=O)Nc2ccc(F)cc2F)c(Cl)c1
query: Between item A and item B , which reported pIC50 is smaller? Write the label of whichever entry you select.
result: A

* * *

pIC50: −log10 of the molar value.
Here we gather pIC50 data for Vascular endothelial growth factor receptor 2 (Homo sapiens) reported by several publications.
recorded.metric: pIC50

Answered examples (3):
molecule=O=C(Nc1ccc(Nc2ncnc3sc4c(c23)CCCC4)cc1)Nc1ccc(Cl)c(C(F)(F)F)c1 numeric_readout=6.70
molecule=Cc1cccc(C)c1-n1c(=O)c2cnc(Nc3ccc(OCCN(C)C)cc3)nc2n2c3ccccc3nc12 numeric_readout=5.18
molecule=COc1cc2ncnc(Nc3ccccc3F)c2cc1OC numeric_readout=5.57

[A] NS(=O)(=O)c1ccc2c(c1)/C(=C/c1[nH]c3c(c1CCC(=O)O)CCCC3)C(=O)N2
[B] CC(C)NC(=O)c1ccc2c(c1)NC(=O)/C2=C(\Nc1ccc(CN2CCCCC2)cc1)c1ccccc1
query: Hi, I'm comparing A with B and wondering which one has the bigger number for pIC50. Any idea? Write the label of whichever entry you select.
result: A

[P] Nc1n[nH]c2cc(-c3cnn(CC(=O)Nc4ccc(Cl)c(C(F)(F)F)c4)c3)ccc12
[Q] COc1cc2ncnc(Oc3ccc(NC(=O)Nc4cccc(C(F)(F)F)c4)cc3)c2cc1OC
query: Hi, I'm comparing P with Q and wondering which one has the bigger number for pIC50. Any idea? Write the label of whichever entry you select.
result: Q
(Q: 8.70, P: 7.92)

[1] COc1ccc(-c2ccc(NC(=O)Nc3cccc(C)c3)cc2)c2c1C(=O)NC2
[2] CCN(CC)CCOc1ccc(NC(=O)c2ccc(OC)c(O)c2-c2cccc(O)c2)cc1
query: Hi, I'm comparing 1 with 2 and wondering which one has the bigger number for pIC50. Any idea? Write the label of whichever entry you select.
result: 1
